Origin of measurements: patent US10399940B2

molecular target: F508delCFTR (Homo sapiens, UniProt P13569, DEL508-508); construct: expressed in transfected cells; host or cells: CFBE41o- (human lung derived epithelial cell line), doxycycline-inducible expression; experiment: Cell Surface Expression-Horse Radish Peroxidase (CSE-HRP) assay; assay type: cell-based; details: CFBE41o-F508delCFTR-HRP cells; with co-corrector (2 μM of 3-[(2R,4R)-4-({[1-(2,2-difluoro-1,3-benzodioxol-5-yl)cyclopropyl]carbonyl}amino)-7-methoxy-3,4-dihydro-2H-chromen-2-yl]benzoic acid); read-out: EC50 (with co-corrector)
Sequence (P13569 with tags, fused parts or gaps DEL508-508): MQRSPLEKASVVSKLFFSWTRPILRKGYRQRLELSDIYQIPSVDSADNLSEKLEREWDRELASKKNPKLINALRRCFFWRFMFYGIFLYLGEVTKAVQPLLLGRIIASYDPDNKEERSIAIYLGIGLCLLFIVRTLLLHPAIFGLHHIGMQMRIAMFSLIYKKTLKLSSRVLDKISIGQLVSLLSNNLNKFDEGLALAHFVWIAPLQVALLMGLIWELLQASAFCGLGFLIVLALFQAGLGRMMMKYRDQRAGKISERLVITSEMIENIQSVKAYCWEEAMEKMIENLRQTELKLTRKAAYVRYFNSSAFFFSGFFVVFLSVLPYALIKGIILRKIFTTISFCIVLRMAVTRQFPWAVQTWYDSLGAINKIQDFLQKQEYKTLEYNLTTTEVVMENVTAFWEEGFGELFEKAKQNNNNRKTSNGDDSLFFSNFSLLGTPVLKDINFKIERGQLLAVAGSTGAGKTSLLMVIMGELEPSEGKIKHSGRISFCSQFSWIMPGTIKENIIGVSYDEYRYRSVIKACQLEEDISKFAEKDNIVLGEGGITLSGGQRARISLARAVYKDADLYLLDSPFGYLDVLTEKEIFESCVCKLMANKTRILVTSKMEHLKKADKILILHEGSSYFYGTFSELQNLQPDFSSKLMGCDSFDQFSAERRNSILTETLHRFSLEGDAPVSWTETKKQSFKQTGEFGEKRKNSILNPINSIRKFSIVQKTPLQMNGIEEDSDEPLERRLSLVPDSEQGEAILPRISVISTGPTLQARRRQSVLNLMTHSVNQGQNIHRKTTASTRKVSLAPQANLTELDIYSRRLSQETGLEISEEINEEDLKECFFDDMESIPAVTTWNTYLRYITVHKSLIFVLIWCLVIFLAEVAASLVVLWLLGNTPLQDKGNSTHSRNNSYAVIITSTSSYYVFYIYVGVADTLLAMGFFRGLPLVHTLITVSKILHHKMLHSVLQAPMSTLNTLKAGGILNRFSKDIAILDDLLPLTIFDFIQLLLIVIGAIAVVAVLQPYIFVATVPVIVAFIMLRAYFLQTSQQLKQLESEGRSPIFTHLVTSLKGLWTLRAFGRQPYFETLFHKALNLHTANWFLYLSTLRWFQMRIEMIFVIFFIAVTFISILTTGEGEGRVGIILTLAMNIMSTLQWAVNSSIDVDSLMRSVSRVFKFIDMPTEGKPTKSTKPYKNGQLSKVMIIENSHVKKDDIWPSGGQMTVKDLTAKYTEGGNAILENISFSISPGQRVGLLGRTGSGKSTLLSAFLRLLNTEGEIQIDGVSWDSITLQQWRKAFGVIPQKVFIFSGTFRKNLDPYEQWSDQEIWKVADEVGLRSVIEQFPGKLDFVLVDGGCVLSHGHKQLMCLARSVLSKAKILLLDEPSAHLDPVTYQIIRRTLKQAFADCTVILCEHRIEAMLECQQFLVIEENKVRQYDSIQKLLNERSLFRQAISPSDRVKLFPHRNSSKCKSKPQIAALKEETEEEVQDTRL
Measurement Name: EC50

# count of solved cases: 3
{"Compound": "COc1ccc(C(F)(F)F)cc1[C@](O)(CO)CO[C@H]1[C@H](C(C)(C)C)[C@@H](C(=O)O)N(C(=O)[C@@H]2CCCCO2)[C@H]1c1ccccc1C [Example 262]", "EC50": "1000 to 10000 nM"}
{"Compound": "COc1nc2ccccc2cc1CO[C@H]1[C@H](C(C)(C)C)[C@@H](C(=O)O)N(C(=O)OC(C)C)[C@H]1c1ccccc1C1CC1 [Example 143]", "EC50": "1000 to 10000 nM"}
{"Compound": "CCc1ccccc1[C@H]1[C@@H](OCc2ccc(C(F)(F)F)cc2OC)[C@H](C(C)(C)C)[C@@H](C(=O)O)N1C(=O)[C@@H]1CCCCO1 [Example 184]", "EC50": "< 1000 nM"}

Field: next compound
Input: API: value(readout= EC50, system= F508delCFTR (Homo sapiens, UniProt P13569, DEL508-508), query= COc1ncc(C(F)(F)F)cc1CO[C@H]1[C@H](C(C)(C)C)[C@@H](C(=O)O)N(C(=O)C2CCOCC2)[C@H]1c1ccccc1C(C)C [Example 110] )
Output: 1000 to 10000 nM

----------
Readings of pEC50 for the listed compounds
biological target: F508delCFTR (Homo sapiens, UniProt P13569, DEL508-508); construct: expressed in transfected cells; host or cells: CFBE41o- (human lung derived epithelial cell line), doxycycline-inducible expression; assay: Cell Surface Expression-Horse Radish Peroxidase (CSE-HRP) assay; type: cell-based; details: CFBE41o-F508delCFTR-HRP cells; test compound without co-corrector; 18-24 hours at 33° C.; read-out: EC50 (without co-corrector)
pEC50: −log10 of the molar value.

{"Chem Smiles": "COc1nc2ccccc2cc1CO[C@H]1[C@H](C(C)(C)C)[C@@H](C(=O)O)N(C(=O)[C@H]2CCCCO2)[C@H]1c1ccccc1C(C)C", "Result": "> 6.00"}
{"Chem Smiles": "COc1ncc(C(F)(F)F)cc1CO[C@H]1[C@H](C(C)(C)C)[C@@H](C(=O)O)N(C(=O)[C@@H]2CCCCO2)[C@H]1c1ccccc1C(C)C", "Result": "> 6.00"}
{"Chem Smiles": "COc1ncc(C2(C)CC2)cc1CO[C@H]1[C@H](C(C)(C)C)[C@@H](C(=O)O)N(C(=O)C2CCCCC2)[C@H]1c1cccnc1OC(C)C", "Result": "> 6.00"}
{"Chem Smiles": "COc1ccc(-c2ccccc2)cc1CO[C@H]1[C@H](C(C)(C)C)[C@@H](C(=O)O)N(C(=O)[C@@H]2CCC[C@@H](OC)C2)[C@H]1c1ccccc1", "Result": "5.00 to 6.00"}

Input: Quick one: pEC50 for `COc1ncc(C(F)(F)F)cc1CO[C@H]1[C@H](C(C)(C)C)[C@@H](C(=O)O)N(C(=O)[C@@H]2CCCO2)[C@H]1c1ccccc1C(C)C` ?
Output: > 6.00

Input: Quick one: pEC50 for `COc1ncc(C(F)(F)F)cc1CO[C@H]1[C@H](C(C)(C)C)[C@@H](C(=O)O)N(C(=O)C2CCCCC2)[C@H]1c1ccccc1F` ?
Output: 5.00 to 6.00
